Reference source for all entries: patent US7495027B2

Could you please report measured MIC for the items listed next?
test system: enterococci; test: Minimum inhibitory concentration, microdilution broth method, enterococci; format: cell-based; settings: Enterococcus faecalis, E. faecalis GC 2242; Mueller-Hinton broth, 18-22 hours at 35° C.; read-out: MIC E. faecalis GC 2242
Give bare numbers, in µg/mL.

compound: O=C1O/C(=C\c2cc(C(F)(F)F)ccc2Cl)C(O)=C1c1ccc(-c2ccccc2)c(F)c1 [Example 126]
MIC [µg/mL]: 1

Batch of 2 compounds: report MIC for each.
1. O=C1O/C(=C\c2cccc3ccccc23)C(O)=C1c1cc(Cl)cc(Cl)c1 [Example 70]
2. N#Cc1cccc(-c2ccc(/C=C3\OC(=O)C(c4ccccc4C#N)=C3O)cc2)c1 [Example 59]

[2, 8]
